# assay_comment: Selectivity index, ratio of IC50 for cytotoxicity against rat L6 cells to IC50 for antiprotozoal activity against long slender blood stream form Trypanosoma brucei rhodesiense STIB900
# Assay type: toxicity, cell-based
# stated_conditions: read-out: Ratio IC50
parameter: selectivity ratio

* N=C(N)c1ccc2cc(-c3ccc(-c4ccc(C(=N)N)nc4)o3)[nH]c2c1 | 2030
* N=C(N)c1ccc(-c2ccc(-c3cc4cc(C(=N)N)ccc4[nH]3)o2)cc1 | 7100
* N=C(N)c1ccc(-c2ccc(-c3cc4cc(C(=N)N)ccc4[nH]3)[se]2)cc1 | 7170
* COc1cc(C(=N)N)ccc1-c1ccc(-c2cc3ccc(C(=N)N)cc3[nH]2)o1 | 283
* N=C(N)c1ccc(-c2ccc(-c3nc4ccc(C(=N)N)cc4[nH]3)s2)cc1 | 829
* N=C(N)c1ccc(-c2ccc(-c3cc4cc(C(=N)N)ccc4[nH]3)o2)nc1 | 8400
* N=C(N)c1ccc(-c2ccc(-c3cc4ccc(C(=N)N)cc4[nH]3)s2)nc1 | 966
* Cc1cc(C(=N)N)ccc1-c1ccc(-c2cc3ccc(C(=N)N)cc3[nH]2)o1 | 850
* N=C(N)c1ccc(-c2ccc(-c3cc4ccc(C(=N)N)cc4[nH]3)s2)cc1 | 1030
* N=C(N)c1ccc(-c2ccc(-c3nc4cc(C(=N)N)ccc4[nH]3)o2)cc1 | 82
